# target_or_test_system: full-length human Mineralocorticoid Receptor (MR) (Homo sapiens, UniProt P08235)
# Construct: host or cells: PathHunter CHO-K1 cells
# Sequence (P08235 1-984): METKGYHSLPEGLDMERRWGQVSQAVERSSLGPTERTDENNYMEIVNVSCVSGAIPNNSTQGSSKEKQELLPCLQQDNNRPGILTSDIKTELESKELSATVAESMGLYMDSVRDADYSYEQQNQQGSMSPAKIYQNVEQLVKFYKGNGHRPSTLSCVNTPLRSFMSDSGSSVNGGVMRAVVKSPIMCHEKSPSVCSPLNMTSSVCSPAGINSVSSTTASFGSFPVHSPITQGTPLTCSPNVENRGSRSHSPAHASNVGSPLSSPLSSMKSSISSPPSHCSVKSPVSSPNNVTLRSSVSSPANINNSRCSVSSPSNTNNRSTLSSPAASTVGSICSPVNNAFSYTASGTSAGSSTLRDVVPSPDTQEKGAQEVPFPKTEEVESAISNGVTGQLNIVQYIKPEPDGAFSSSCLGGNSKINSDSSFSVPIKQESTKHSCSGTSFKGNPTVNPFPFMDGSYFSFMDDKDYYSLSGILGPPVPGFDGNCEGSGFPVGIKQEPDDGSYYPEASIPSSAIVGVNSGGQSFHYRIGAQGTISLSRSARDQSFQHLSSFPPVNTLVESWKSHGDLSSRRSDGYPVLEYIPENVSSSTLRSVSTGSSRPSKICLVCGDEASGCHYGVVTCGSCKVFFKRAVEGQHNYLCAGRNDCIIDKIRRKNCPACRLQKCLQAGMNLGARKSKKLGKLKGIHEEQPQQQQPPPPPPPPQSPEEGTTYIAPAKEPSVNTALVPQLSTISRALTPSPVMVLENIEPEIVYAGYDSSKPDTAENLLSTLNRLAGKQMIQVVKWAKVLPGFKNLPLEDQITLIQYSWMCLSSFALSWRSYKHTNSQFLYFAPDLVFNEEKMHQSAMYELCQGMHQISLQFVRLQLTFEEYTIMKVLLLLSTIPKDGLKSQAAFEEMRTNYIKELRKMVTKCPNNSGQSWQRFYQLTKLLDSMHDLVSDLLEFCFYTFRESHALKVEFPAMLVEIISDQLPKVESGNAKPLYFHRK
# assay_name: human MR NH Pro assay (PathHunter Protein:Protein interaction assay), MR antagonist activity
# Type: cell-based
# test_settings: PathHunter CHO-K1 cells overexpressing human MR; aldosterone about 0.3 nM; 6 hours at 37° C.; luminescence; read-out: Primary Assay IP rating (IP = inflection point for a given dose-response titration curve)
# Text: The activity of the compounds of the present invention regarding mineralocorticoid receptor antagonism can be evaluated using the following assay. Assessment of MR Potency in HMR NH Pro Assay […] • (ThermoFisher) (except those wells in columns 23 and 24) 4. […] Read plates on Envision (PerkinElmer) luminesence plate reader and analyze using ADA.
Recorded measurements of IC50, one per entry
assay_endpoint: IC50

1) CCC(c1ccc(C(F)(F)F)cc1)(C(C)O)n1ncc2c(NS(C)(=O)=O)cccc21 (single isomer, unassigned) [Compound 117] | < 100 nM
2) CCC(/C=C/C#N)(c1ccc(Cl)cc1)n1ncc2c(N(C(=O)OC(C)(C)C)S(C)(=O)=O)cccc21 (stereo not shown) | < 100 nM
3) CCC(c1ccc(Cl)cc1)(n1ccc2c(NS(C)(=O)=O)cccc21)C1(O)CC1 (stereo not shown) | < 100 nM
4) CCC(C(=O)NCC(=O)OC)(c1ccc(Cl)cc1)n1ccc2c(NS(C)(=O)=O)cccc21 (stereo not shown) | 100 to 500 nM
